# assay_target: CDK4/cyclin D1 (Homo sapiens, UniProt P11802)
# Construct: GST
# Sequence (P11802 whole entry): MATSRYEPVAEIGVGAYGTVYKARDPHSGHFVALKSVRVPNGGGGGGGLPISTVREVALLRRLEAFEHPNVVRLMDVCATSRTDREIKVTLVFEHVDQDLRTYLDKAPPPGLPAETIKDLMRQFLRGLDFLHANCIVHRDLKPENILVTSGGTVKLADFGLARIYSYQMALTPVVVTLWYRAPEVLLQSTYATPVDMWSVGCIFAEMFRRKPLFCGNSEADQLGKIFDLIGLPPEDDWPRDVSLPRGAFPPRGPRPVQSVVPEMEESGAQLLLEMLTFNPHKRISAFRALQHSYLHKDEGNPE
# Sequence (P24385 whole entry partner): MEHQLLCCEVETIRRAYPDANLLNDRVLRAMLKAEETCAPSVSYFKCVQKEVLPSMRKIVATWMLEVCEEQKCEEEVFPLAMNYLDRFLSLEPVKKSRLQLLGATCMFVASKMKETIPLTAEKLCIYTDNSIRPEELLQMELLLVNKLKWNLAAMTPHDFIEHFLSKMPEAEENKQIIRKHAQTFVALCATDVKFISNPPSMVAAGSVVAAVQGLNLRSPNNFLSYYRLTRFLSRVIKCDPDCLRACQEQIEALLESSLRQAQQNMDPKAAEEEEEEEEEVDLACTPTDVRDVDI
# test_description: Inhibitory activity against CDK4 (CDK4/cyclin D1 kinase assay, GST-Rb substrate, 32P-ATP)
# measurement_conditions: 100 μM ATP, 30° C., 30 minutes
measured_metric: IC50 (µM)

Some compounds with recorded IC50:
# sample_smiles, assay_target, IC50 / µM
rows = [
    ("Cc1cc(N2CCCS2(=O)=O)c2oc(-c3ccc(O)c(Br)c3)c(O)c(=O)c2c1", "CDK4/cyclin D1 (Homo sapiens, UniProt P11802)", 0.21),
    ("CCN(CC)c1cc(N2CCCS2(=O)=O)c2oc(-c3ccc(O)cc3)c(O)c(=O)c2c1", "CDK4/cyclin D1 (Homo sapiens, UniProt P11802)", 7.1),
]

(A) CC(=O)Nc1cc(C)cc2c(=O)c(O)c(-c3ccc(O)c(N)c3)oc12
(B) Nc1cc(N2CCCS2(=O)=O)c2oc(-c3ccc(O)c(Cl)c3)c(O)c(=O)c2c1
From the recorded data, which exceeds the other in IC50: A or B ? Give the label under which the chosen entry appears.
A
(A: 17 µM, B: 0.18 µM)
